- test: endothelial E-selectin expression blockers – imaging, HUVEC, immunofluorescence, MLSMR starter and 10KST1 sets, primary screen (AID 487);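 further: 100% = median nuclei count of all wells on the same plate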
- applied_conditions: HUVEC TNFalpha-induced E-selectin immunofluorescence imaging, at 2 µM; measured here: cell number, toxicity
Reported nuclei count by item:

| molecule | result_units | nuclei count |
| --- | --- | --- |
| Cc1cnc(C(=O)Nc2ccc(N3CCN(C(=O)OC(C)(C)C)CC3)cc2)cn1 | % | 93.1 |
| CCC(=O)Nc1cc(C)c(NC(=O)C23CC4CC(CC(C4)C2)C3)cn1 | % | 102 |
| CS(=O)(=O)NCc1ccc(C(=O)NCc2ccccc2)cc1 | % | 109 |
| CCc1ccccc1NC(=O)C(C#N)Cc1cccnc1 (configuration not stated) | % | 104 |
| N#CC1=C(N)N(c2ccccc2)C(c2ccco2)C1(C#N)C#N (configuration not stated) | % | 107 |
| CC(=O)Nc1ccc(-c2nn[nH]n2)cc1Cl | % | 97.8 |
| CCOC(=O)C1CCCN(C(=O)Cc2ccc(OC)c(OC)c2)C1 (configuration not stated) | % | 104 |
| O=C(O)COc1ccc(Oc2ccccc2)cc1 | % | 112 |
| COCCn1c(C)c(C(=O)O)sc1=S | % | 104 |
| CCN(Cc1nc2cc(OC)c(OC)cc2c(=O)[nH]1)C(=O)c1ccc(S(=O)(=O)N(C)C)cc1 | % | 89.6 |
| O=C(CCN1CCOCC1)Nc1cccc(Br)c1 | % | 125 |
| Cc1nc(SCC(=O)Nc2ccccc2C(F)(F)F)c2c(=O)n(C)c(=O)n(C)c2n1 | % | 121 |

----------
- test: endothelial E-selectin expression blockers – imaging, HUVEC, immunofluorescence, MLSMR starter and 10KST1 sets, primary screen (AID 487);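 further: 100% = median nuclei count of all wells on the same plate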
- applied_conditions: HUVEC TNFalpha-induced E-selectin immunofluorescence imaging, at 2 µM; measured here: cell number, toxicity

| compound | nuclei count (%) |
| --- | --- |
| CC(OC(=O)CNC(=O)C12CC3CC(CC(C3)C1)C2)C(=O)Nc1ccc(N2CCOCC2)cc1 (stereo not given) | 111 |
| CC1=C(C(=O)N2CCOCC2)C(c2ccsc2)C2=C(CCCC2=O)N1 (stereo not given) | 110 |
| CCc1ccc(C2CC(c3cccc(OC)c3)n3nc(N)nc3N2)cc1 (stereo not given) | 104 |
| O=C(CCc1ccc(S(=O)(=O)N2CCOCC2)cc1)NCCc1ccccn1 | 144 |
| CCC(OC(=O)c1cccs1)C(=O)NCc1ccco1 (stereo not given) | 118 |

----------
- test: endothelial E-selectin expression blockers – imaging, HUVEC, immunofluorescence, MLSMR starter and 10KST1 sets, primary screen (AID 487);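 further: 100% = median nuclei count of all wells on the same plate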
- applied_conditions: HUVEC TNFalpha-induced E-selectin immunofluorescence imaging, at 2 µM; measured here: cell number, toxicity
Reported nuclei count by item:

| molecule | nuclei count / % |
| --- | --- |
| CCOC(=O)c1oc2c(CN3CCN(C)CC3)c(O)ccc2c(=O)c1-c1ccccc1OC | 103 |
| CCN(CCCNC(=O)C1CCCN(S(=O)(=O)c2cnc[nH]2)C1)c1ccccc1 (stereo unspecified) | 142 |
| COc1cc(C(=O)NCC(=O)OCC(=O)c2ccc[nH]2)cc(OC)c1OC | 107 |
| Cc1onc(-c2ccccc2)c1C(N)=O | 159 |
| CCCCNC(=O)CN(C1CCCCC1)S(C)(=O)=O | 103 |
| CN(C)c1ccc(C2C3=C(CCCC3=O)OC3=C2C(=O)CCC3)cc1 | 110 |
| COc1ccccc1CNC(=O)C(C)NS(=O)(=O)c1ccccc1 (stereo unspecified) | 78 |
| Cc1ccc(C2CC(c3ccc(C)cc3)n3nc(N)nc3N2)cc1 (stereo unspecified) | 116 |
| Cn1c(=O)c2c(nc(SCCCO)n2Cc2ccccc2Cl)n(C)c1=O | 92.6 |
| CN(C)C(=O)COc1ccc2cc(-c3ccccc3)c(=O)oc2c1 | 146 |
| C=CCn1cc(C(=O)NCCOC)c(=O)c2cc(S(=O)(=O)N(CC)CC)ccc21 | 115 |

----------
- test: blockers of RIG-like receptor reporter activation – cell-based, Sendai virus stimulus, luciferase, 10K MLSCN set, TLR/RLR signaling modifier project, primary screen (AID 602276);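 further: firefly luciferase from ISG56 promoter only with Renilla not read in this screen; 0% = Sendai virus plus DMSO and 100% = medium plus DMSO without virus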
- applied_conditions: HEK293 RL24 IRF3 luciferase reporter, at 10 µM, stronger effect = higher value
Reported inhibition by item:

| compound | inhibition [%] |
| --- | --- |
| CCc1nnc(NC(=O)CSc2nc(-c3ccc(OC)cc3)ns2)s1 | -36.8 |
| CCCC1C(C#N)=C(N)Oc2n[nH]c(C(C)(C)C)c21 (configuration not stated) | 13.9 |
| CN1CCN(S(=O)(=O)c2ccc(NC(=O)c3ccc(F)cc3)cc2)CC1 | 0.12 |
| CCn1c(SC)nc2c(c1=O)SC(C)C2 (configuration not stated) | 6.41 |
| O=C(CSc1nc2cc(Cl)ccc2s1)N1CCN(C(=O)c2ccco2)CC1 | 21.6 |
| CCS(=O)(=O)N1CCC(C(=O)N2CCOCC2)CC1 | 12.1 |
| Cc1cc(C(=O)Nc2c(F)cc(F)cc2Br)no1 | 3.46 |
| CCOc1ccccc1C(=O)NCCC(=O)O | -1.19 |
| Cc1ccc(-c2nn(-c3ccccc3)cc2/C=C(\C#N)c2cccc(C#N)c2)o1 | 13.8 |
| CCOC(=O)c1c(C)oc2ccc(OCC(N)=O)cc12 | 5.65 |
| O=C(Nc1ccc2c(c1)OCO2)c1cccc(Cl)c1 | -28.3 |
| COCCNC(=O)CN1CCC(NC(=O)Nc2ccc(C(F)(F)F)cc2)CC1 | 5.43 |

----------
- measured_on: Voltage-gated potassium channel subunit beta-2 (Rattus norvegicus)
- test: inhibitors of rat Kvbeta2 reductase activity – biochemical, NADPH fluorescence, primary screen (AID 622);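 further: slope of raw intensity against log time taken from 70 to 1610 s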
- applied_conditions: recombinant KvBeta, 4-cyanobenzaldehyde reduction, at 10 µM, stronger effect = higher value
Active and inactive are the calls of the source.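 The calls were made as follows: active = fluorescence slope higher than the sample average by over 3 SD (cut at about -0.22 in these data, passing the limit was not always enough); inactive = the rest.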

| molecule | fluorescence slope |
| --- | --- |
| Cc1ccc(-c2nnc(SC(C)C#N)n2N)cc1 (stereo unspecified) | -0.587 (inactive) |
| CC(O)c1nc2ccccc2n1C1CCCCC1 (stereo unspecified) | -0.585 (inactive) |
| Cc1sc2ncnc(SCC(=O)N3CCCC3)c2c1C | -0.433 (inactive) |
| Cc1cc(Br)ccc1NC(=O)CCN1C(=O)c2ccncc2C1=O | -0.51 (inactive) |
| Cc1cc(=O)[nH]c(S/C=C/c2ccccc2)n1 | -0.603 (inactive) |
| Cn1c(=O)oc2cc(S(=O)(=O)NC3CCN(Cc4ccccc4)CC3)ccc21 | -0.57 (inactive) |

----------
- measured_on: Voltage-gated potassium channel subunit beta-2 (Rattus norvegicus)
- test: inhibitors of rat Kvbeta2 reductase activity – biochemical, NADPH fluorescence, primary screen (AID 622);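 further: slope of raw intensity against log time taken from 70 to 1610 s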
- applied_conditions: recombinant KvBeta, 4-cyanobenzaldehyde reduction, at 10 µM, stronger effect = higher value
Returns Met if the recorded fluorescence slope is greater than or equal to -0.5, and Not met otherwise.

| molecule | discrete_label |
| --- | --- |
| CCOC(=O)c1sc(NC(=O)CSc2ncn(-c3ccccc3)n2)nc1C | Met |
| COc1cccc(CN2C(=O)C3(C(C#N)=C(N)OC4=C3C(=O)CCC4)c3ccccc32)c1 (stereo unspecified) | Met |
| CC(=O)Nc1ccc(NC(=O)C(C)Oc2ccccc2F)cc1 (stereo unspecified) | Not met |
| CC(N)C12CC3CC(C1)CC(C(C)N)(C3)C2 (stereo unspecified) | Met |
| CCN(CC)S(=O)(=O)c1ccc2c(c1)nc(SCn1nnc3ccccc3c1=O)n2CC | Met |
| Cc1nnc(SCc2cccc(Oc3ccccc3)c2)n1N | Met |
| NC(=O)C1CCN(c2nc(-c3ccccc3)nc3ccccc23)CC1 | Met |
| COc1ccc(C(=O)NCc2nnc(SC)n2C2CCCCC2)cc1 | Not met |
| CN(CC(=O)N1CCN(c2ccccn2)CC1)S(=O)(=O)c1ccc2ccccc2c1 | Met |
| CCOc1ccc(N(C(C)C(=O)NC2CCCCCC2)S(C)(=O)=O)cc1 (stereo unspecified) | Met |
| Cc1nc(CNS(=O)(=O)c2cc(C)c(C)cc2C)cs1 | Met |
| O=C(O)C1CC(=O)N(Cc2ccccc2)C1 (stereo unspecified) | Not met |
| O=C(O)c1ccc(S(=O)(=O)Cc2ccccc2)cc1 | Met |
| COc1ccc(CNC(=O)c2ccc(CN3CCOCC3)cc2)cc1 | Met |
| CN(C)c1nc(Nc2ccc(Cl)cc2)nc(OCC#N)n1 | Not met |
| CCN(C(C)=O)c1nnc(CSc2nc3ccccc3s2)s1 | Met |
| O=C(NCc1cccnc1)c1ccc(Cl)c(Cl)c1 | Not met |
| CCC(=O)Nc1cc(C)c(NC(=O)C23CC4CC(CC(C4)C2)C3)cn1 | Met |
| O=S(=O)(c1cccc2c(S(=O)(=O)N3CCCC3)cccc12)N1CCCC1 | Met |
| CN(C)C(=O)CSc1nnc2sc3ccccc3n12 | Met |
| COCCCNC(=O)CSc1nc2ccc(N3CCOCC3)cc2c(=O)n1CCc1ccccc1 | Not met |
| Cc1nc2c(-c3ccccc3)c(C)[nH]n2c(=O)c1Cl | Met |
| Cc1ccc(OCC(O)Cn2c(NCCc3ccccc3)nc3c2c(=O)[nH]c(=O)n3C)cc1 (stereo unspecified) | Met |
| COCCN(CC(=O)Nc1ccccc1C)S(=O)(=O)c1ccc(S(=O)(=O)N2CCCC2)cc1 | Met |
| O=C(C1CCCO1)N1CCc2ccccc21 (stereo unspecified) | Met |
| CCCN(CCC)c1nc2ccccc2n2c(C)nnc12 | Met |
| CCOC(=O)N1CCC(N2C(=O)c3ccccc3C2Nc2ccccc2C)CC1 (stereo unspecified) | Not met |
| C=Cn1c(C(=O)O)cc(CC)c1-c1ccccc1 | Not met |
| Cc1nnc(SCc2nnc(-c3ccccc3Br)o2)n1-c1ccccc1 | Met |
| CCC(C)(C)NC(=O)CN(C(=O)c1snc(C(N)=O)c1N)c1ccc2c(c1)OCO2 | Not met |
| C=CCOC(=O)C1=C(C)NC(=O)NC1c1cn(-c2ccccc2)nc1-c1cccs1 (stereo unspecified) | Met |
| CSc1ccccc1NC(=O)CN(Cc1ccccc1)S(C)(=O)=O | Not met |
| O=C1OCCC1Sc1ncnc2sccc12 (stereo unspecified) | Met |
| O=C(Cn1c(NCCO)nc2ccccc21)c1ccccc1 | Not met |
| COC(=O)c1ccccc1NC(=O)C12CCC(C)(C(=O)O1)C2(C)C (stereo unspecified) | Met |
| Cc1cccc(C)c1NC(=O)N1CCN(C2CCCCC2)CC1 | Not met |
| COC(=O)c1ccc(CSc2nc3c(cnn3-c3ccc(C)c(C)c3)c(=O)[nH]2)o1 | Met |
| Cc1cccc2cc(CN(Cc3nnnn3Cc3ccccc3)C3CCCC3)c(=O)[nH]c12 | Met |
| O=S(CC(O)COCc1ccc(Cl)cc1)c1ccccn1 (stereo unspecified) | Met |
| O=C(C1CCCN1S(=O)(=O)c1cccc2cccnc12)N1CCn2c1nc1ccccc12 (stereo unspecified) | Not met |
| CSc1ccccc1NC(=O)C1CCCO1 (stereo unspecified) | Met |

Source listed as PubChem BioAssay.
